Entries and their % Disp. of 125I-HP 467 (second of duplicate) values follow.
tested-target: MCR-1 (Homo sapiens, UniProt Q01726)
Construct: expressed in transfected cells; host or cells: HEK 293
Sequence (Q01726 whole entry): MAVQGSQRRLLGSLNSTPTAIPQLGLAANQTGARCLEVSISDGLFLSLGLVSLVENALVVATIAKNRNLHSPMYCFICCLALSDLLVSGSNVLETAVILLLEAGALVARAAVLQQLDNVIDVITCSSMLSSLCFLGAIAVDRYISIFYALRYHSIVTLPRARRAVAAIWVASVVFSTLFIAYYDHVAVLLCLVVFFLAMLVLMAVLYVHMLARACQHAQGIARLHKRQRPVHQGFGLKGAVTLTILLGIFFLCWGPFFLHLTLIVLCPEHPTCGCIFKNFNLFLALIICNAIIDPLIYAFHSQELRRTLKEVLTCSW
experiment-description: Melanocortin receptor binding assay, competition with 125I-HP 467, HEK 293 cells expressing hMCR-1
condition-label: 10 μM isoquinoline compound, HEK 293 cells expressing MCR-1, duplicate 2
property-measured: % Disp. of 125I-HP 467 (second of duplicate) (%)

[
  {
    "compound": "CCCOc1ccc(C2C(CNC3CCCCC3)c3ccccc3CN2CCCCC(CN)NC)cc1 (centres unmarked) [TRG 2405-253]",
    "recorded-value": 92.2
  },
  {
    "compound": "CNC(CN)CN1Cc2ccccc2C(CNC2CCCCC2)C1c1nccs1 (centres unmarked) [TRG 2405-180]",
    "recorded-value": 64.6
  },
  {
    "compound": "CNC(CN)CCCCN1Cc2ccccc2C(CNC2CCCCC2)C1c1cc(OC)cc(OC)c1 (centres unmarked) [TRG 2405-211]",
    "recorded-value": 69
  },
  {
    "compound": "CNC(CN)CCCCN1Cc2ccccc2C(CNC2CCCCC2)C1c1ccc(OC)c(F)c1 (centres unmarked) [TRG 2405-220]",
    "recorded-value": 60.6
  },
  {
    "compound": "CNC(CN)CN1Cc2ccccc2C(CNC2CCCCC2)C1c1ccc[nH]1 (centres unmarked) [TRG 2405-175]",
    "recorded-value": 68.8
  },
  {
    "compound": "CNC(CN)CCCCN1Cc2ccccc2C(CNC2CCCCC2)C1c1ccccc1 (centres unmarked) [TRG 2405-181]",
    "recorded-value": 64.4
  },
  {
    "compound": "CNC(CN)CCCCN1Cc2ccccc2C(CNC2CCCCC2)C1c1ccc2ccccc2c1 (centres unmarked) [TRG 2405-200]",
    "recorded-value": 81
  },
  {
    "compound": "CNC(CN)CCCCN1Cc2ccccc2C(CNC2CCCCC2)C1c1ccccc1CN (centres unmarked) [TRG 2405-195]",
    "recorded-value": 35.7
  },
  {
    "compound": "CNC(CN)CCCCN1Cc2ccccc2C(CNC2CCCCC2)C1c1ccccc1F (centres unmarked) [TRG 2405-196]",
    "recorded-value": 64.6
  },
  {
    "compound": "CNC(CN)CCCCN1Cc2ccccc2C(CNC2CCCCC2)C1c1c(F)cccc1Cl (centres unmarked) [TRG 2405-194]",
    "recorded-value": 51.4
  },
  {
    "compound": "CNC(CN)CCCCN1Cc2ccccc2C(CNC2CCCCC2)C1c1ccco1 (centres unmarked) [TRG 2405-197]",
    "recorded-value": 41.3
  },
  {
    "compound": "CNC(CN)CCCCN1Cc2ccccc2C(CNC2CCCCC2)C1c1ccc(C)cc1 (centres unmarked) [TRG 2405-249]",
    "recorded-value": 83
  },
  {
    "compound": "CNC(CN)CCCCN1Cc2ccccc2C(CNC2CCCCC2)C1c1ccc2c(c1)OCCO2 (mixture of isomers) [TRG 2405-183]",
    "recorded-value": 64.1
  },
  {
    "compound": "CNC(CN)CCCCN1Cc2ccccc2C(CNC2CCCCC2)C1c1cc(Cl)cc(Cl)c1 (centres unmarked) [TRG 2405-210]",
    "recorded-value": 69.6
  },
  {
    "compound": "CNC(CN)CCCCN1Cc2ccccc2C(CNC2CCCCC2)C1c1cccc(CN)c1 (centres unmarked) [TRG 2405-219]",
    "recorded-value": 42.9
  },
  {
    "compound": "CNC(CN)CCCCN1Cc2ccccc2C(CNC2CCCCC2)C1c1cccc([N+](=O)[O-])c1 (centres unmarked) [TRG 2405-229]",
    "recorded-value": 48.8
  },
  {
    "compound": "CNC(CN)CCCCN1Cc2ccccc2C(CNC2CCCCC2)C1c1ncc[nH]1 (centres unmarked) [TRG 2405-198]",
    "recorded-value": 26.4
  }
]
